- TGT: T1, human CEACAM6, full-length, on cells (human, UniProt P40199 35-320)
- T1 construct: used both for transfected HeLa cells and for tumor cell lines that express CEACAM6 endogenously; also called TPP-4639; HeLa human CEACAM6
- T1 sequence: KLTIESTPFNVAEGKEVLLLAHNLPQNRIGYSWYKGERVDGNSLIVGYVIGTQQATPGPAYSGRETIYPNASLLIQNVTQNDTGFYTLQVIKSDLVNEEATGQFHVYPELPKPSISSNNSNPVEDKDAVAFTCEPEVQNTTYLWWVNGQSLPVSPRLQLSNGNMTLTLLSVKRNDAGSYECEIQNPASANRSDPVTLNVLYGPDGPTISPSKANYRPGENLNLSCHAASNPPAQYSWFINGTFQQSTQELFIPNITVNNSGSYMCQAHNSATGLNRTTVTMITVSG
- ASSAY_COMMENT: FACS, transfected HeLa cells
MEASURE_NAME: FACS median fluorescence

## Task Which measured FACS median fluorescence value corresponds to TPP-2971 (antibody, mouse IgG1, V domains shown, murine hybridoma antibody, mouse IgG1; also called 792.15H12C9) VH: QVTLKESGPGILQPSQTLSLTCSFSGFSLSTYGIGVGWIRQPSGKDLEWLAHIWWNDNKYYNTALKSRLTISKDTSNNQVFLKIASVDTADTATYYCARISLPYFDYWGQGTTLTVSS VL: DIVMTQSQKFMSTSVGDRVSITCKASQNVGTAVAWYQQKPGQSPKLLIYSASNRYTGVPDRFTGSGSGTDFTLTISNMQSEDLADYFCQQYSSYPLTFGAGTKLELK ?
## Result 10 to 100 medianfluorescence
